Measured IC50, listed per entry for reference.
Target: UniProtKB Q9BE39
Sequence (Q9BE39 whole entry): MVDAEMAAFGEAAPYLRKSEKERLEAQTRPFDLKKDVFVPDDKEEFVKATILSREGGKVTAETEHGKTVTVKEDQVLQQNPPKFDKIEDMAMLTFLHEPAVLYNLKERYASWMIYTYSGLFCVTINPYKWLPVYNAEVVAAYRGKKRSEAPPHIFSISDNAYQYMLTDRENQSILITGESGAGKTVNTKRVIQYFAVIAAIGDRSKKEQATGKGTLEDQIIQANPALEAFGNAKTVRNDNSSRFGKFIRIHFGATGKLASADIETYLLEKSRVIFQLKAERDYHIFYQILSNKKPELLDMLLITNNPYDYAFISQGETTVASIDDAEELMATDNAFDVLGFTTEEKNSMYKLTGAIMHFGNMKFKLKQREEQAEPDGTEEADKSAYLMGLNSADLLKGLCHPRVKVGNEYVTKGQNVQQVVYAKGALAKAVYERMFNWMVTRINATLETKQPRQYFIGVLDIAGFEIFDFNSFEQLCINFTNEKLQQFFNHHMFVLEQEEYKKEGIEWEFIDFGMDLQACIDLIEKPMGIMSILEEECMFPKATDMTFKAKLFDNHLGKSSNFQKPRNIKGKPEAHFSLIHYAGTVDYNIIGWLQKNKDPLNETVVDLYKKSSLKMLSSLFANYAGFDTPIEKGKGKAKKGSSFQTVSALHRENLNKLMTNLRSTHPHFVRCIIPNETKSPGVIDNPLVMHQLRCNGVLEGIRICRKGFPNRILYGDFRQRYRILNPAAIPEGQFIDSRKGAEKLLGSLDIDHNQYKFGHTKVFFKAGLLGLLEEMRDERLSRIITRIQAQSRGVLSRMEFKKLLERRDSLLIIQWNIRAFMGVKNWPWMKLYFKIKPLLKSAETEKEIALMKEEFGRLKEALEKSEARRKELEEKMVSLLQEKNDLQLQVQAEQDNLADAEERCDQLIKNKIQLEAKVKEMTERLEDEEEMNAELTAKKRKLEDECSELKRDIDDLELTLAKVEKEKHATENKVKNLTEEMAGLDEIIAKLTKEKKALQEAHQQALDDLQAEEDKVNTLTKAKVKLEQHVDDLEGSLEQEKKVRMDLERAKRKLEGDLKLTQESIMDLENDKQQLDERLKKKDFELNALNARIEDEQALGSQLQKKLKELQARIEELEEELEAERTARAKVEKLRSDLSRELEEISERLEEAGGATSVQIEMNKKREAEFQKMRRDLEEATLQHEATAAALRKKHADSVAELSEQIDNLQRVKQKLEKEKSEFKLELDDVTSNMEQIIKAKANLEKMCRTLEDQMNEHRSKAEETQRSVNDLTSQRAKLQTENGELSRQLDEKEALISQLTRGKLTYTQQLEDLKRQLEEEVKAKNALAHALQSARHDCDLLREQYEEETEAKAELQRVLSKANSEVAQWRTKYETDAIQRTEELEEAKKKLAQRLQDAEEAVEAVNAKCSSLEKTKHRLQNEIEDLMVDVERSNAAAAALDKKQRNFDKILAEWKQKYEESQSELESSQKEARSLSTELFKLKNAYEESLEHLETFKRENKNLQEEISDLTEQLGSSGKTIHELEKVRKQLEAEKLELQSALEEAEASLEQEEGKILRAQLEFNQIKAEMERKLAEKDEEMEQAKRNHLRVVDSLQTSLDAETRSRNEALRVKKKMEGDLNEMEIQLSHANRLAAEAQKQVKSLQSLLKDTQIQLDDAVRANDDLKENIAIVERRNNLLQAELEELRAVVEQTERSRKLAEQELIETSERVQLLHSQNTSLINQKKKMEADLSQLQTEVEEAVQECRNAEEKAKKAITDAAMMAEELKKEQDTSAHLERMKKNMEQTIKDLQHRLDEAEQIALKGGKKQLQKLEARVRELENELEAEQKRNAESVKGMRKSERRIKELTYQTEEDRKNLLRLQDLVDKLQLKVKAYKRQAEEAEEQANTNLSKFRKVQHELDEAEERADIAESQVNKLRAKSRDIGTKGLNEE
Sequence (P85100 whole entry partner): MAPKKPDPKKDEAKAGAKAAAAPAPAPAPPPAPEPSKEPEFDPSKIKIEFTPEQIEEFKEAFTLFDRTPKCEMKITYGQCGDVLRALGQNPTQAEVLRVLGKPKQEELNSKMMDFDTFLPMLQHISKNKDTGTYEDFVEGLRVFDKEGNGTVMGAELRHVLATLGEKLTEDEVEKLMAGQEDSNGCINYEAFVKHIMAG
Sequence (Q3SZE5 whole entry partner): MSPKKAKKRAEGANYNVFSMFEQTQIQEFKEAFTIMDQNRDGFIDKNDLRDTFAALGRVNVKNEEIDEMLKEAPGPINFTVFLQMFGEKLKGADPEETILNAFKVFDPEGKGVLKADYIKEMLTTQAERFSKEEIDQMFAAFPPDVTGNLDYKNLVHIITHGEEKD
Experiment: Myosin inhibition assay (PK/LDH-coupled ATPase, bovine cardiac myofibrils)
Settings: calcium concentration giving 50% activation, pH 6.8, read-out: bcMF pCa_6 IC50

Worked cases, answers included:
{"MOLECULE": "O=c1[nH]c2c(c(=O)n1-c1cc(F)cc(F)c1)CC[C@H](c1cccc(F)c1)N2 [Compound 60]", "OBSERVED_MEASUREMENT": "1 to 15 µM"}
{"MOLECULE": "CCn1c(=O)[nH]c2c(c1=O)CC[C@@](c1ccccc1)(C(C)C)N2 [Compound 132]", "OBSERVED_MEASUREMENT": "> 15 µM"}
{"MOLECULE": "O=c1[nH]c2c(c(=O)n1-c1cc(F)cc(F)c1)C[C@@H](c1ccccc1)N2 [Compound 79]", "OBSERVED_MEASUREMENT": "> 15 µM"}
{"MOLECULE": "COc1cccc(-n2c(=O)[nH]c3c(c2=O)CC[C@H](C2CCC(F)(F)CC2)N3)n1 [Compound 39]", "OBSERVED_MEASUREMENT": "1 to 15 µM"}
{"MOLECULE": "Cn1ccc(-n2c(=O)[nH]c3c(c2=O)CC[C@H](C2CCC(F)(F)CC2)N3)n1 [Compound 36]", "OBSERVED_MEASUREMENT": "< 1 µM"}
{"MOLECULE": "O=c1[nH]c2c(c(=O)n1-c1ccccc1)CC[C@H](C1CCC(F)(F)CC1)N2 [Compound 47]", "OBSERVED_MEASUREMENT": "< 1 µM"}
{"MOLECULE": "CCn1c(=O)[nH]c2c(c1=O)CC[C@H](c1ccc(F)c(F)c1)CN2 [Compound 84]", "OBSERVED_MEASUREMENT": "> 15 µM"}
{"MOLECULE": "CC(C)n1c(=O)[nH]c2c(c1=O)CC[C@@](c1ccccc1)(C(F)F)N2 [Compound 112]", "OBSERVED_MEASUREMENT": "< 1 µM"}
{"MOLECULE": "O=c1[nH]c2c(c(=O)n1-c1ccccc1)CC[C@H](c1cccc(F)c1)N2 [Compound 49]", "OBSERVED_MEASUREMENT": "1 to 15 µM"}
{"MOLECULE": "O=c1[nH]c2c(c(=O)n1CC(F)F)CC[C@H](c1cccc(F)c1)N2 [Compound 24]", "OBSERVED_MEASUREMENT": "1 to 15 µM"}

Quick note, IC50 for CCn1c(=O)[nH]c2c(c1=O)CC[C@H](c1ccccc1Cl)N2 [Compound 57] landed at 1 to 15 µM

Quick note, IC50 for CCn1c(=O)[nH]c2c(c1=O)CC[C@](C)(c1cc(F)ccc1F)N2 [Compound 119] landed at 1 to 15 µM
